- Procedure details: NCI Yeast Anticancer Drug Screen. Data for the rad14 strain (AID 159);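 also: 0% = growth of vehicle-treated control cultures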
- Conditions: S. cerevisiae rad14 strain growth inhibition; at 33.0 µM
About 79,000 compounds went through this panel and 15% of them were active in at least one assay; those are over-represented in the sample as a whole. Calls of active or inactive are those of the source. Rule as the data show it: active = growth inhibition above about 70%; inactive = the rest.
Labels: active, inactive

• Cc1ccc(C)c(C(=N)c2ccccc2Cc2ccccc2)c1 = active
• CCN1CCC(O)(c2ccc(Oc3ccc(Cl)cc3)cc2)C(C(=O)c2ccc(Oc3ccc(Cl)cc3)cc2)C1 (configuration not stated) = inactive
• CC(=O)N1C=Cc2c(c(C)c3c([nH]c4ccccc43)c2C)C1 = active
• COc1ccc(C(=O)/C=C\c2ccc(Cl)c(Cl)c2)cc1 = inactive
• O=C1NC(c2cccc(OCc3ccccc3)c2)Nc2ccccc21 (configuration not stated) = inactive
• CCCCS/C(=C(/C#N)C(N)=O)c1cc2c([nH]1)CCCC2 = inactive
• CCCCCCCCCCCCCCCCCCN(C)C(COC)COP(=O)([O-])OCC[N+](C)(C)C (configuration not stated) = active
• OC1(c2ccccc2)C2CC=CC2C1(c1ccccc1)c1ccccc1 (configuration not stated) = inactive
• CC(=O)CC(c1ccccc1)c1c(O)c2ccccc2oc1=O (configuration not stated) = inactive
• O=S(=O)(c1ccccc1)N1CN2CN(C1)CN(S(=O)(=O)c1ccccc1)C2 = inactive
• CNCC(C)CNC = inactive
• C=C(C(=O)OC)N1C(=O)CC(C)C1=O (configuration not stated) = inactive
• O=C1C=C(NCCc2cc(Br)c(O)c(Br)c2)C(=O)c2ncccc21 = active
• COc1cc(C2C3=C(COC3=O)Oc3cc4c(cc32)OCO4)cc(OC)c1O (configuration not stated) = inactive
• CC(=O)O[C@H]1CC[C@@]2(C)C(=CC[C@@H]3C2CC[C@]2(C)C(=O)NC(=O)CC32)C1 (some centres not stated) = inactive
• C[n+]1c(-c2ccc(/C=N/NC(=O)c3ccc(C(=O)N/N=C/c4ccc(-c5cn6ccccc6[n+]5C)cc4)cc3)cc2)cn2ccccc21 = inactive
• O=[N+]([O-])c1cccc2nc3ccccc3c(NCCCN3CCCCC3)c12 = active
• Cc1cc(OCc2nc(N)nc(N)c2-c2ccc(Cl)c(Cl)c2)ccc1[N+](=O)[O-] = inactive
• CC1(C)CC(=O)C(/C=N/c2nc(-c3ccc(Br)cc3)cs2)=C(O)C1 = active
• O=C(O)C1CCCCC1c1c2ccc(=O)cc-2oc2cc(O)ccc12 (configuration not stated) = inactive
• C/C(=N/NC(=S)Nc1ccccc1C)c1ccccn1 = inactive
• O=C1C(=O)c2cccc([N+](=O)[O-])c2-c2ccccc21 = active

###

Measured growth inhibition by item
- Procedure details: NCI Yeast Anticancer Drug Screen. Data for the sgs1 strain (AID 173);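 also: 0% = growth of vehicle-only control cultures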
- Conditions: S. cerevisiae sgs1 mutant, at 1.2 µM, active compounds read high
The panel holds about 79,000 compounds, 15% with a hit somewhere; the sample as a whole holds those more often.
Property label: growth inhibition (%)

- OC(Cc1cccc2ccccc12)CN1CCC(c2ccccc2)CC1 (configuration not stated): 60
- CCCCN(CCC#N)c1ccc(/C=C/c2ccnc3ccccc23)cc1: -4
- C/C1=C/C2OC(=O)C3(C)C2C(CC2(C)OC1=CC2=O)OC3(O)C(C)C (configuration not stated): 5
- COc1ccc(C(C)c2cc3c(cc2OC(C)O)OCO3)cc1 (configuration not stated): -3
- O=C(Cc1ccccc1)NNc1nc(NNC(=O)c2ccncc2)nc(Nc2ccc([N+](=O)[O-])cc2)n1: 10
- CN(C)CCNc1ccc2ncn3c4ccc(O)cc4c(=O)c1c23: -21
- CC(C)(CN1CCCCC1)C(=O)/C=C/c1c(Cl)cccc1Cl: 0
- CN(C)/C(=N/C(=S)Nc1ccccc1)SCc1ccccc1: -3
- CC(C)(Br)C(=O)/C=C/c1ccccc1: 24
- Oc1ccc(C2(c3ccc(O)cc3)CCCC2)cc1: -20
- O=C(/C=C/c1ccsc1)c1cccs1: -15
- COc1ccc(C(OCC2OC(n3cnc4c(=O)n(Cc5ccccc5[N+](=O)[O-])nnc43)C(O)C2O)(c2ccccc2)c2ccc(OC)cc2)cc1 (configuration not stated): -10
- COc1cc([C@@H]2c3cc4c(cc3[C@@H](NC(=O)NO)[C@H]3COC(=O)[C@H]23)OCO4)cc(OC)c1O: -1
- CSc1nc(-c2ccccc2)nc(=[N+]2CCOCC2)s1: 10
- CCC[CH2][Sn]([CH2]CCC)([CH2]CCC)/[C](=C/[Si](C)(C)c1ccccc1)c1ccc2c(c1)OCO2: 1
- COc1cc2oc3ccccc3c(=O)c2cc1CSc1ccccc1N: 1
- NC(N)=NC(N)=Nc1ccccc1 (tested in a mixture with another compound): 2
- O=C(Cc1ccccc1)NNc1nc(NNC(=O)c2ccncc2)nc(Nc2ccc(Cl)cc2)n1: 3
- CCOC(=O)CC1(C)/C(=N\Nc2ccc([N+](=O)[O-])cc2[N+](=O)[O-])CCC2C1CCC1(C)C(C(C)CCCC(C)C)CCC21 (configuration not stated): -1
- OB(O)c1ccccc1C#Cc1ccccc1: -1
- O=c1cccccc1[O-].O=c1cccccc1[O-].O=c1cccccc1[O-].[Eu+3]: 2
- CC(C)CCC[C@@H](C)[C@H]1CC[C@H]2[C@@H]3CC[C@H]4C[C@H](N)CC[C@]4(C)[C@H]3CC[C@]12C: -3
- CC(C)NCCCNc1c2ccccc2nc2cccc([N+](=O)[O-])c12: 92
- CC(=O)Oc1ccc2c(c1)Cc1cc(N3C(=O)C=CC3=O)ccc1-2: 16
- O=[N+]([O-])c1ccc(C(c2c[nH]c3ccccc23)c2c[nH]c3ccccc23)cc1: 33
- O=S(=O)(c1ccccc1)N1CN2CN(C1)CN(S(=O)(=O)c1ccccc1)C2: -21
- CNC(=O)OCc1c2ccncc2c(C)c2c1[nH]c1ccccc12: 67
- CC(C)N(CCCNc1c2ccccc2nc2cccc([N+](=O)[O-])c12)C(C)C: 80
- c1ccc2c(c1)N=C1CCCC3CCCC123 (configuration not stated): -1
- Cc1cc(O)c(C(C)C)cc1SC#N: -30
- O=C(CCSC1=NCCCN1)c1ccc(F)cc1: -41
- CCN(CC)CCNc1ccc2nc(C)n3c4ccc(O)cc4c(=O)c1c23: 0
- CCc1c(Cl)c(C)c(Cl)c(O)c1Cl: -4
- O=[N+]([O-])c1ccc2[nH]c3c(-c4ccccc4)nccc3c2c1: -12
- Fc1ccc(Nc2ccc3ccccc3c2)cc1: -2
- c1ccc([P+](CCN2Cc3ccccc3C2)(c2ccccc2)c2ccccc2)cc1: 13
- O=C(Oc1ccc([N+](=O)[O-])cc1)c1ccc([N+](=O)[O-])cc1: -4
- N#CCC(=O)N/N=C(\c1ccccc1)C(c1ccccc1)C1(O)C(=O)Nc2c(Cl)ccc(Cl)c21 (configuration not stated): -1
- C/C(=N\OCC(O)CNCCSCc1ccccc1)c1ccccc1Cl (configuration not stated): 8
- Cn1c(-c2ccc(/C=N\N3CCN(/N=C/c4ccc(-c5c[n+]6ccsc6n5C)cc4)CC3)cc2)c[n+]2ccsc12: 29
- CCN1CCC(O)(c2ccc(Oc3ccc(Cl)cc3)cc2)C(C(=O)c2ccc(Oc3ccc(Cl)cc3)cc2)C1 (configuration not stated): -27
- Cc1cc2nc3ccccc3n2c2ccccc12: -43

###

Measured growth inhibition by item
- Procedure details: NCI Yeast Anticancer Drug Screen. Data for the sgs1 strain (AID 173);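 also: 0% = growth of vehicle-only control cultures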
- Conditions: S. cerevisiae sgs1 mutant, at 11.0 µM, active compounds read high
About 79,000 compounds went through this panel and 15% of them were active in at least one assay; those are over-represented in the sample as a whole.
Property label: growth inhibition (%)

* CC(/C=C/c1ccc([N+](=O)[O-])o1)=N/N1CC(CN2CCOCC2)OC1=O (stereo unspecified) | 69
* O=C1c2cccc3cccc(c23)C(=O)N1O | 19
* S=C1C(=Nc2ccccc2)N(c2ccccc2)/C(=N\c2ccccn2)N1c1ccccc1 | 66
* CCC(C)COC(=O)Nc1cccc(Cl)c1 (stereo unspecified) | 7
* c1ccc([P+](CCN2Cc3ccccc3C2)(c2ccccc2)c2ccccc2)cc1 | 53
* N#C/C(=C\NC(=S)Nc1ccc(S(N)(=O)=O)cc1)C(=O)c1ccc2ccccc2c1 | 0
* O=[N+]([O-])/C=C/c1cc2ccc3ccccc3c2[nH]1 | 89
* O=C(CCCN1CCC(Nc2ccc(F)cc2)(c2nnnn2C2CCCCC2)CC1)c1ccc(F)cc1 | -4
* COc1c2c(c3c(c1CCC(=O)O)OC(C)(C)C=C3)OC(C)(C)C=C2 | 20
* COC(=O)C(=O)CC(=O)c1cccc(OC)c1 | 8
* O=C(/N=N/C(=O)Oc1ccccc1)Oc1ccccc1 | -35

###

- Procedure details: NCI Yeast Anticancer Drug Screen. Data for the wt2 strain (AID 169);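 also: 0% = growth of vehicle-treated yeast cultures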
- Conditions: S. cerevisiae wt2 strain growth inhibition; at 11.0 µM
About 79,000 compounds went through this panel and 15% of them were active in at least one assay; those are over-represented in the sample as a whole. Activity calls are given as the source filed them. Rule as the data show it: active = growth inhibition above about 70%; inactive = the rest.
Labels: active, inactive

• O=C1c2ccccc2C(=O)c2sc(Nc3ccccc3Cl)nc21 = active
• Cc1cccc2c(NCCCN(C)C)c3c([N+](=O)[O-])ccc(C)c3nc12 = inactive
• C=C(C(=O)OC)N1C(=O)CC(C)C1=O (stereo unspecified) = inactive
• Cc1nc2sc3c(c2c(=O)o1)CCCC3 = inactive
• O=C1C[C@H]2[C@H](c3ccc(Br)cc3)[C@H]3C(=O)c4ccccc4NC(=O)[C@@H]3[C@@]2(O)c2ccccc2N1 = inactive
• COc1ccc2c3c1OC(C)C31CC(=O)CCC1CC2 (stereo unspecified) = inactive

Numbers sourced from PubChem BioAssay (NCI).
